- targetSystem: RORgT (Homo sapiens, UniProt P51449)
- Construct: Gal4 (fusion partner); expressed in transfected cells; host or cells: engineered Jurkat cells (Jurkat pEx/Gal/hRORγ CLBD/HYG pG5luc/blast)
- Sequence (P51449 267-516): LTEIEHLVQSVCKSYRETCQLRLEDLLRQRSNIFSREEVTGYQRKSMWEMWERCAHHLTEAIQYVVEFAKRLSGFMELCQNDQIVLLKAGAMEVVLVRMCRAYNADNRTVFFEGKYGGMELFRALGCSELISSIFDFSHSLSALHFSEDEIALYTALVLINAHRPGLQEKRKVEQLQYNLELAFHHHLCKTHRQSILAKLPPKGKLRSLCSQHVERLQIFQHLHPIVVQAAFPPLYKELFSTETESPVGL
- assayProcedure: RORgT Gal4 Luciferase Reporter Gene Assay
- Assay type: cell-based
- conditionSummary: engineered Jurkat cells overexpressing RORgT (LBD or full length) with Gal4 Luc reporter; 18 hours at 37° C.; 40 μM to 0.67 nM; read-out: RORg_GAL4 EC50
propertyLabel: EC50 (nM)

1. COc1ccc(Oc2c(Cl)ccc(C(=O)N3CCOCC3)c2Cl)cc1C(C)C [Example 211]    46
2. CC(C)(F)c1cc(F)cc(Oc2c(Cl)cc(NC(=O)Cc3ccc(S(C)(=O)=O)cc3)cc2Cl)c1 [Example 325]    7.2
3. COc1ccc(Oc2c(Cl)cc(NC(=O)CCc3c(C)n[nH]c3C)cc2Cl)cc1C(C)C [Example 249]    1640
4. CC(C)c1cc(F)cc(Oc2c(Cl)ccc(CNC(=O)C3CCN(S(C)(=O)=O)CC3)c2Cl)c1 [Example 148]    4
5. COc1ccc(Oc2c(Cl)cc(NC(=O)CCn3ccc(S(C)(=O)=O)n3)cc2Cl)cc1C(C)C [Example 252]    264
6. COc1ccc(Oc2c(Cl)cc(NC(=O)C3(c4cccnc4)CCCCC3)cc2Cl)cc1C(C)C [Example 348]    372
7. COc1ccc(Oc2c(Cl)cc(NC(=O)CN3CCC[C@@H](NS(C)(=O)=O)C3)cc2Cl)cc1C(C)C [Example 171]    2590
8. COc1ncc(Oc2c(Cl)ccc(C(=O)NCC3CCN(S(C)(=O)=O)CC3)c2Cl)cc1C(C)C [Example 72]    33
9. COc1ccc(Oc2c(Cl)cc(NC(=O)Cc3cncc(Cl)n3)cc2Cl)cc1C(C)C [Example 239]    170
10. COc1ccc(Oc2c(Cl)cc(N3CC(CNS(C)(=O)=O)OC3=O)cc2Cl)cc1C(C)C (stereo not shown) [Example 254]    655
11. COc1ccc(Oc2c(Cl)cc(NC(=O)CC#N)cc2Cl)cc1C(C)C [Example 301]    343
12. CC(c1cc(F)cc(Oc2c(Cl)cc(NC(=O)CC3CCN(S(C)(=O)=O)CC3)cc2Cl)c1)C(F)(F)F (stereo not shown) [Example 351]    5.7
13. COc1ccc(Oc2c(Cl)ccc(C(=O)NC(C)c3ccc(S(C)(=O)=O)cc3)c2Cl)cc1C(C)C (stereo not shown) [Example 105]    30
14. COc1ccc(Oc2c(Cl)ccc(CNC(=O)c3ccc(S(C)(=O)=O)cc3Cl)c2Cl)cc1C(C)C [Example 62]    96
15. COc1ccc(Oc2c(Cl)ccc(C(=O)NCC3CCCC(O)C3)c2Cl)cc1C(C)C (stereo not shown) [Example 225]    920
16. COCCC(=O)Nc1cc(Cl)c(Oc2ccc(OC)c(C(C)C)c2)c(Cl)c1 [Example 300]    591

###

pEC50: recorded values
- targetSystem: RORgT (Homo sapiens, UniProt P51449)
- Construct: Gal4 (fusion partner); expressed in transfected cells; host or cells: engineered Jurkat cells (Jurkat pEx/Gal/hRORγ CLBD/HYG pG5luc/blast)
- assayProcedure: RORgT Gal4 Luciferase Reporter Gene Assay
- Format: cell-based
- conditionSummary: engineered Jurkat cells overexpressing RORgT (LBD or full length) with Gal4 Luc reporter; 18 hours at 37° C.; 40 μM to 0.67 nM; read-out: RORg_GAL4 EC50
pEC50: −log10 of the molar value.
propertyLabel: pEC50

1) CC(c1cc(F)cc(Oc2c(Cl)cc(NC(=O)CC3CCN(S(C)(=O)=O)CC3)cc2Cl)c1)C(F)(F)F (stereo not shown) [Example 352]    7.82
2) COc1ccc(Oc2c(Cl)ccc(C(=O)N3CCC(O)CC3)c2Cl)cc1C(C)C [Example 189]    7.40
3) CCS(=O)(=O)N[C@H]1CCN(CC(=O)Nc2cc(Cl)c(Oc3ccc(OC)c(C(C)C)c3)c(Cl)c2)C1 [Example 164]    7.10
4) COc1ccc(Oc2c(Cl)ccc(C(=O)NCc3ccc(=O)[nH]c3)c2Cl)cc1C(C)C [Example 227]    6.96
5) COc1ccc(Oc2c(Cl)cc(NC(=O)Cc3cnccn3)cc2Cl)cc1C(C)C [Example 286]    6.50
6) CCS(=O)(=O)N1CCN(CC(=O)Nc2cc(Cl)c(Oc3ccc(OC)c(C(C)C)c3)c(Cl)c2)CC1 [Example 313]    7.49
7) COc1ccc(Oc2c(Cl)ccc(C(=O)N(C)Cc3ccc(S(N)(=O)=O)cc3)c2Cl)cc1C(C)C [Example 110]    7.41
